tgt: human APJ receptor (Homo sapiens)
Construct: expressed in transfected cells; host or cells: HEK293
Sequence (P35414 1-380): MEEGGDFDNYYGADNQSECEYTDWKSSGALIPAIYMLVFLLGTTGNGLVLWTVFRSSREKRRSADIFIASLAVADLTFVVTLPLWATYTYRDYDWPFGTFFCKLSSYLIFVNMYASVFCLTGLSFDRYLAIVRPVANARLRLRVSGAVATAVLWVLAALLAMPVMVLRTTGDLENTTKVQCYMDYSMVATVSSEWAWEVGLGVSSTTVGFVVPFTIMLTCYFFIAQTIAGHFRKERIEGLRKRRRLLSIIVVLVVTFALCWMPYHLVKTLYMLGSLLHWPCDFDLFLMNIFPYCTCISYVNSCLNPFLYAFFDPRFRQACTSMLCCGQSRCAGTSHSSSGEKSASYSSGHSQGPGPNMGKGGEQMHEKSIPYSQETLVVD
assay details: Intracellular cAMP Accumulation Assay (APJ hcAMP, HTRF)
Type: cell-based
experimental setup: human APJ, cAMP accumulation; potency range class; read-out: hAPJ cAMP EC50 Potency range
quantity: EC50

Looking up CCc1cccc(CC)c1-n1c(-c2csc(C)n2)nc(=O)c(C(=O)N2CC[C@H](c3ccccc3)C2)c1O , I see its EC50 listed as 0.01 to 10 nM

Looking up COc1cccc(OC)c1-n1c(-c2ccc(Cl)cn2)nc(=O)c(C(=O)N2CCC(c3c(F)cccc3F)C2)c1O (single isomer, unassigned) , I see its EC50 listed as 0.01 to 10 nM

Looking up COc1cccc(OC)c1-n1c(-c2ccc(F)c(C)c2)nc(=O)c(C(=O)N2CCC(c3ncc(F)cc3F)C2)c1O (single isomer, unassigned) , I see its EC50 listed as 0.01 to 10 nM

Looking up CCCCc1nc(=O)c(C(=O)N2CCC(c3ncc(Cl)cc3F)C2)c(O)n1-c1c(OC)cccc1OC (single isomer, unassigned) [Example 356] , I see its EC50 listed as 0.01 to 10 nM

Looking up COc1cccc(OC)c1-n1c(-c2ccn(C)n2)nc(=O)c(C(=O)N2CCC(c3ncc(Cl)cc3F)C2)c1O (single isomer, unassigned) , I see its EC50 listed as 0.01 to 10 nM

Looking up COc1ccnc(-c2nc(=O)c(C(=O)N3CCC(c4ccc(F)cc4F)C3)c(O)n2-c2c(OC)cccc2OC)c1 (single isomer, unassigned) , I see its EC50 listed as 0.01 to 10 nM

Looking up COc1cccc(OC)c1-n1c(-c2ccc(F)cc2)nc(=O)c(C(=O)N2CCC(c3ncc(Cl)cc3F)C2)c1O (single isomer, unassigned) , I see its EC50 listed as 0.01 to 10 nM

Looking up COc1cccc(OC)c1-n1c(-c2ccc(C)nc2)nc(=O)c(C(=O)N2CCC(c3c(F)cccc3F)C2)c1O (single isomer, unassigned) , I see its EC50 listed as 0.01 to 10 nM

Looking up COc1cccc(OC)c1-n1c(-c2ccc(F)cc2)nc(=O)c(C(=O)N2CCC(c3ccncc3)C2)c1O (single isomer, unassigned) , I see its EC50 listed as 10 to 100 nM

Looking up COc1cccc(OC)c1-n1c(-c2cc(C)ccn2)nc(=O)c(C(=O)N2CCC(c3ccccc3F)C2)c1O (single isomer, unassigned) , I see its EC50 listed as 0.01 to 10 nM

Looking up COc1cccc(OC)c1-n1c(-c2ccc(F)cc2)nc(=O)c(C(=O)N2CCC(c3ccc(Cl)cc3)C2)c1O (single isomer, unassigned) , I see its EC50 listed as 10 to 100 nM

Looking up CCCCc1nc(O)c(C(=O)N2CCC(c3ncc(F)cc3F)C2)c(=O)n1[C@@H](CC)c1ccccc1 (single isomer, unassigned) , I see its EC50 listed as 0.01 to 10 nM
